Protocol: Membrane-water distribution by HPLC on solid-supported egg lecithin bilayer (column A1)
Assay type: physicochemical
Assay setup: column A1, pH 7.4, 23° C., calculated from retention time via calibration curve; read-out: logDcal-PC, pH 7.4
Value type: chromatographic logD
Reply with just the number.

So what does the record say about chromatographic logD for CC(=O)CC(c1ccccc1)c1c(O)c2ccccc2oc1=O (stereo not shown) [Warfarin, 3-(-acetonylbenzyl)-4-hydroxycoumarin] ?
1.1
